growth for assorted compounds
Tested on: NCI/ADR-RES ovarian
Assay: NCI-60 one-dose screen, 48 h (100 = growth as untreated, 0 = no growth, -100 = all killed)
Details: 10 µM unless noted
Compounds without any hit were thinned out: in the full panel of roughly 83,000, 20% have a hit. Calls of active or inactive are those of the source. How the source made its calls: active means growth percent below 10; inactive means the rest.

O=C(CCN1CCCCC1)c1ccc2ccccc2c1	109% (inactive)

In: So what does the record say about growth for "Cc1cc(-c2ccc(N=Nc3c(S(=O)(=O)O)cc4cc(S(=O)(=O)O)cc(N)c4c3O)c(C)c2)ccc1N=Nc1cc(S(=O)(=O)O)c2ccccc2c1O" ?
Out: 97.2% (inactive)

In: Consider the compound "Cc1ccc(S(=O)(=O)Nc2ccccc2)cc1N" and give its measured growth.
Out: 91% (inactive)

In: # growth lookup, item "C=C(C)[C@@H]1CC[C@]2(C(=O)NCCNCCNC(=O)OC(C)(C)C)CC[C@]3(C)[C@H](CC[C@@H]4[C@@]5(C)CCC(=O)C(C)(C)[C@@H]5CC[C@]43C)[C@@H]12"
Out: 52.2% [100 µM] (inactive)

In: Please give the measured growth for this compound: "O=C(CSc1nc2ccc([N+](=O)[O-])cc2[nH]1)Nc1ccc(F)c(Cl)c1"
Out: 22.4% (inactive)

====

System: RXF 393 renal
Assay: NCI-60 one-dose screen, 48 h (100 = growth as untreated, 0 = no growth, -100 = all killed)
Conditions: 10 µM unless noted
About 83,000 compounds went through this panel and 20% of them were active in at least one assay; those are over-represented in the sample as a whole.
growth values by entry
# value in %; strip the unit string

// below: answered compounds
CC1(C(=O)O)CCC(N)(C(=O)O)C1(C)C (centres undefined)	126
C[C@@H]1C[C@H]2C(=O)O[C@@H](C)[C@H](NC(=O)[C@H](Cc3cc(F)cc(F)c3)NC(=O)Nc3ccc(Cl)cc3F)C(=O)N3C[C@H](O)C[C@H]3C(=O)N3CCN(C)C[C@H]3C(=O)N[C@@H](C)C(=O)N2C1	88.1
CCN(CC)c1ccc(/C=C/C=C2\NC(=O)NC2=O)cc1	2.31

In: Entry "Nc1nc(SCc2cccc([N+](=O)[O-])c2)c2[nH]cnc2n1" : reported growth = ?
Out: 73.6

In: I am curious: what growth value has been reported for C=C(C)C1CCC2(C(=O)O)CCC3(C)C(CCC4C5(C)CCC(OC(=O)NCc6ccccc6)C(C)(C)C5CCC43C)C12 (centres undefined) ?
Out: 60.2

In: Reported growth for "Cc1ccccc1OC(=O)c1cccc(Cl)c1" : what is it?
Out: 113

In: Reported growth, compound "CN(C)c1ccc(-c2ccc(-c3ccc(C(=N)N)cc3)s2)cc1" : ____
Out: 54.3

In: # get_value(readout='growth', item= "O=S(=O)(c1ccc(N/N=C\c2ccccc2Cl)cc1)c1ccc(N/N=C/c2ccccc2Cl)cc1" )
Out: 106

In: If you can, please state the reported growth value of O=C(C[n+]1ccn(CC(OCc2ccc(Cl)cc2Cl)c2ccc(Cl)cc2Cl)c1)c1ccc(F)cc1 (centres undefined) .
Out: -94.2

====

System: SK-MEL-5 melanoma
Assay: NCI-60 one-dose screen, 48 h
Details: 10 µM unless noted
About 83,000 compounds went through this panel and 20% of them were active in at least one assay; those are over-represented in the sample as a whole. Calls of active or inactive are those of the source. Rule for the calls: active = growth percent below 10; inactive = the rest.
// one of active, inactive, no free text

Please review the entries below; each comes with its answer.
CO[C@H]1CC[C@@]2(C)C(=CC[C@H]3[C@@H]4C[C@H](O)C[C@@]4(C)CC[C@@H]32)C1	inactive
Cc1cccc(C[C@H](NC(=O)Nc2ccc(Cl)cc2F)C(=O)N[C@@H]2C(=O)N3C[C@H](O)C[C@H]3C(=O)N3CCCC[C@H]3C(=O)N[C@@H](C)C(=O)N3C[C@H](C)C[C@H]3C(=O)O[C@H]2C)c1	active
CCOC(=O)c1nn(C2CCCCO2)c2ccc(NC(=O)Cn3nnc4ccccc43)cc12 (centres undefined)	inactive

We next turn to a different molecule, shown below.
In: Please share the test call associated with CCOC(=O)CC(c1ccccc1)C(C#N)c1ccccc1 (centres undefined) .
Out: inactive
